# Test system: EKVX NSCLC
# ASSAY_REMARKS: NCI tumour cell line growth inhibition, 48 h
Reported GI50 values are given for each entry in this list.

The cases that follow already have their GI50 on record.
[
  {
    "COMPOUND": "COC(=O)[C@@H](C)C[C@H](Cc1cn(C)c2ccccc12)NC(=O)c1csc([C@@H](C[C@H](C(C)C)N(C)C(=O)[C@@H](NC(=O)[C@H]2CCCCN2C)C(C)C)OC(C)=O)n1",
    "GI50": "44 nM"
  },
  {
    "COMPOUND": "CC[C@H](NC(=O)[C@H]1CCCCN1C)C(=O)N(C)[C@H](C[C@@H](OC(C)=O)c1nc(C(=O)N[C@@H](Cc2ccccc2)C[C@H](C)C(=O)O)cs1)C(C)C",
    "GI50": "10 nM"
  },
  {
    "COMPOUND": "Nc1ccccc1NC(=O)c1ccc(CNc2nccc(-c3cccnc3)n2)cc1",
    "GI50": "1360 nM"
  },
  {
    "COMPOUND": "C=CCC(N[C@@H](CO)c1ccccc1)c1cn(Cc2ccccc2Cl)c(=O)n(Cc2ccccc2Cl)c1=O (stereo partly specified)",
    "GI50": "> 100000 nM"
  },
  {
    "COMPOUND": "NS(=O)(=O)OCC1OC(n2cnc3cncnc32)C(O)C1O (stereo unspecified)",
    "GI50": "64 nM"
  }
]

Would you kindly look at the next entry?
Problem: Quick one: GI50 of "O=S(=O)([O-])c1ccc(N=Cc2ccccc2[O-])cc1.O=S(=O)([O-])c1ccc(N=Cc2ccccc2[O-])cc1.[O]=[U+2]=[O]" ?
Solution: > 100000 nM

---

# Test system: HOP-92 NSCLC
# ASSAY_REMARKS: NCI tumour cell line growth inhibition, 48 h
Reported TGI values are given for each entry in this list.
Write down the numeric answer in µM and omit the unit.

The cases that follow already have their TGI on record.
[
  {
    "COMPOUND": "COC(=O)CCC(C)[C@H]1CCC2C3C(C[C@H](OC(C)=O)[C@@]21C)[C@@]1(C)CCC2(C[C@H]1C[C@H]3OC(C)=O)OOC1(CCCC1)OO2 (stereo partly specified)",
    "SYSTEM": "HOP-92 NSCLC",
    "TGI, µM": 64.8
  },
  {
    "COMPOUND": "N=C(N)c1ccc(-c2ccc(-c3ccc(Cl)cc3Cl)o2)nc1",
    "SYSTEM": "HOP-92 NSCLC",
    "TGI, µM": 2.9
  },
  {
    "COMPOUND": "COc1ccc(N=Cc2c(O)ccc3c2oc2cc(Cl)c(O)c(Cl)c23)cc1",
    "SYSTEM": "HOP-92 NSCLC",
    "TGI, µM": 32.6
  },
  {
    "COMPOUND": "C=C1CCCC2[C@](C)(CC3=C(Cl)C(=O)C=C(OC)C3=O)C(C)CC[C@]12C (stereo partly specified)",
    "SYSTEM": "HOP-92 NSCLC",
    "TGI, µM": 14.7
  },
  {
    "COMPOUND": "C=C(C)C(=O)O[C@H]1CC2=C[C@@H](C[C@@]3(C)O[C@@H]3[C@H]3OC(=O)C(=C)[C@@H]31)OC2=O",
    "SYSTEM": "HOP-92 NSCLC",
    "TGI, µM": 2.78
  }
]

Problem: Quick one: TGI of "O=C1C(Cl)=C(Sc2nnc3c4ccccc4c4ccccc4c3n2)C(=O)c2ccccc21" ?
Solution: 33.2

Problem: Quick one: TGI of OC(c1cc(-c2cccc(Cl)c2)nc2ccccc12)C1CCCCN1 (stereo unspecified) ?
Solution: 2.51

Problem: Quick one: TGI of COC(=O)C(Cc1nc2ccccc2[nH]c1=O)/C(=N\NC(C)(C)C)C(=O)Nc1c(C)cc(Br)cc1C (stereo unspecified) ?
Solution: 45.5

Problem: Quick one: TGI of CN(C)CCCC1c2ccccc2Oc2ccc(C(F)(F)F)cc21 (stereo unspecified) ?
Solution: 25.2

Problem: Quick one: TGI of CC12OOC(c3ccccc31)c1c2ccc2ccccc12 (stereo unspecified) ?
Solution: 9.94
